PROCEDURE_TEXT: clinical
CONDITION_CONTEXT: human, in vivo, 68 mg, Cmax
MEASUREMENT_LABEL: Cmax (ng/mL)

ENTRY_SMILES	MEASUREMENT_LABEL	UNITS_SYMBOL	ENDPOINT_RESULT
CC(C)(C(=O)NCC(F)(F)C(F)(F)F)C(=O)N[C@@H]1C(=O)Nc2ccccc2-c2ccccc21	Cmax	ng/mL	1640

---

PROCEDURE_TEXT: clinical
CONDITION_CONTEXT: human, in vivo, 100 mg, Cmax
MEASUREMENT_LABEL: Cmax (ng/mL)

ENTRY_SMILES	MEASUREMENT_LABEL	ENDPOINT_RESULT
CC(C)(C(=O)NCC(F)(F)C(F)(F)F)C(=O)N[C@@H]1C(=O)Nc2ccccc2-c2ccccc21	Cmax	2390
